Assay: Plasma pharmacokinetics of SGC003F in rats with or without tariquidar
Assay type: in vivo, rat
Settings: male, Sprague-Dawley, rat, plasma, iv, 1 mg/kg, rat plasma, SGC003F i.v. 1 mg/kg, with tariquidar i.v. 7.5 mg/kg
Protocol: Adult Sprague Dawley rats (230–280 g) were obtained from Beijing Vital River Laboratory Animal Technology Co., Ltd. (Beijing, China). […] The main pharmacokinetic parameters, such as time to peak (tmax), half-life (t1/2), peak concentration (Cmax), and area under the curve (AUC), bioavailability (F), were calculated using a non-compartmental model with WinNonlin 8.1 software (Princeton, NJ, USA). […]
Measure name: AUC(0-t) (ng·h/mL)
Numbers only here, please. The scale is ng·h/mL.

**Query** Give the measured AUC(0-t) of COC(=O)Nc1c(N)nc(-c2nn(Cc3sccc3F)c3ncc(F)cc23)nc1N [SGC003F] .
**Result** 8170

Data origin: paper PMC11435065
